Each recorded value in this set is attributed to PubChem BioAssay AID2060895.

Please respond with reported viability, T/C for every item in the list.
system: PDC 899932-113-R3-J6 complex spheroid viability; experiment: Anticancer human tumor 899932-113-R3-J6-PDC patient-derived melanoma cell line growth inhibition [RAS]; details: second compound 0.003 µM; first compound 0.0316 µM; hits give low values;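 note: spheroids exposed to agents for seven days before readout; 100% = DMSO vehicle control wells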
All answers are understood in %, so give the number only.

## Task For the compound Nc1ccn(C2OC(CO)C(O)C2(F)F)c(=O)n1 (configuration not stated) + CCn1c(-c2cccnc2C(C)OC)c2c3cc(ccc31)N1CCOC(CC(NC(=O)C(C(C)C)N(C)C(=O)C3(F)CCN(C(=O)C#CC(C)(C)N(C)C)CC3)C(=O)N3CCCC(N3)C(=O)OCC(C)(C)C2)C1 , give its measured viability, T/C value.
## Result 36.3

## Task Return value of viability, T/C for input C=CC(=O)Nc1cc(Nc2nccc(-c3cn(C)c4ccccc34)n2)c(OC)cc1N(C)CCN(C)C + CCn1c(-c2cccnc2C(C)OC)c2c3cc(ccc31)N1CCOC(CC(NC(=O)C(C(C)C)N(C)C(=O)C3(F)CCN(C(=O)C#CC(C)(C)N(C)C)CC3)C(=O)N3CCCC(N3)C(=O)OCC(C)(C)C2)C1 , no commentary.
## Result 107
